Listed here are binders together with their documented hAMY3R EC50 (cAMP).
Target: T1, hAMY3R (human, UniProt P30988)
T1 sequence 1: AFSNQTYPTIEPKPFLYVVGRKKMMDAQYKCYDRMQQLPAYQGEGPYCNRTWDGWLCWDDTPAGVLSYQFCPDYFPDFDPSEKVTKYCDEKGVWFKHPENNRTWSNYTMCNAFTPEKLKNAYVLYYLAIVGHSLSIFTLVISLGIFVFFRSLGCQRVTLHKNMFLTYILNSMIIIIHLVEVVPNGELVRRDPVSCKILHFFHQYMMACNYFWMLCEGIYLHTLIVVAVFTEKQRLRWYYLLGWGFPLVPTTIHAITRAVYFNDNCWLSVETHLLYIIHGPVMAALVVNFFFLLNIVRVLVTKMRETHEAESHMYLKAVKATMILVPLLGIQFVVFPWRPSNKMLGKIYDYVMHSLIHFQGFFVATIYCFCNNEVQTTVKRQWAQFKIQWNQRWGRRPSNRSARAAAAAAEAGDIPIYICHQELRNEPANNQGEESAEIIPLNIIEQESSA
T1 sequence 2: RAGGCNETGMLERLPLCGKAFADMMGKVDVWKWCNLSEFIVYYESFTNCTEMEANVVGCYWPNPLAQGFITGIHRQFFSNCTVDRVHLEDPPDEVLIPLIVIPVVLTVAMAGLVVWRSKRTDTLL
Assay: cell-based or functional assay
Bridge positions count the residues as written; N and C are the ends. Square brackets hold non-standard residues; d marks the D form. Ends that are not written are not given here. Cit = NC(=O)NCCC[C@H](N)C(=O)O

Sample answers from the record:
GCRTGTCTVQWLAHQIYQFTDKDKDNVAPRTNIGPNGY [SEQ ID NO: 348]: 41 pM
GCRTGTCTVQ[Cit]LAHQIYQFTDKDKDNVAPRSKVGPQGY-NH2 (disulfide 2-7 (inferred); ends not checked) [SEQ ID NO: 285]: 157 pM

// moving on: another record for hAMY3R EC50 (cAMP)
Any idea what its hAMY3R EC50 (cAMP) is? The binder is KCNTATCATQRLANFLVHSSNNFGAILSSTKIGSNGY [SEQ ID NO: 148]
40 pM
